B1: HDAC6 (parent)
chain: DLMETTQYMNEGELRVLADTYDSV

variants of: B1; assay: protein stability index of a GFP-peptide fusion (GPS, HEK-293T) (PSI 1-6); higher = more stable; settings: c terminus: a fixed tail appended;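 note: lentivirally expressed fusions sorted by FACS into six bins by GFP to DsRed ratio, PSI derived from sequencing read proportions per bin multiplied by bin number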
Give condition met when the value for protein stability index is at least 2. Give condition not met when it is less.

sequence-entry | class-name
DLMETTAYMNEGELRVLADTYDSV [Q7A] | condition not met

Task: Reported protein stability index reaches at least 2 for DLMETTQYMNEGELSVLADTYDSV [R15S] ?
Result: condition met

Task: And the next one, DLMETTQYMNEGELRVLADTQDSV [Y21Q] ?
Result: condition met

Task: Another: DLMETTRYMNEGELRVLADTYDSV [Q7R]
Result: condition not met

Task: Could you do the same for DLMETFQYMNEGELRVLADTYDSV [T6F] , please?
Result: condition not met

Task: Now the variant DLMETTQYMNEGEVRVLADTYDSV [L14V]
Result: condition met

Task: Now this one: DLMETTQYMREGELRVLADTYDSV [N10R]
Result: condition not met

Task: Then DLMETTQYDNEGELRVLADTYDSV [M9D] ?
Result: condition met
